Molecular target: ACE (purified by lung rabbit, EC 3.4.15.1) (Oryctolagus cuniculus, UniProt P12822)
Sequence (P12822 34-1310): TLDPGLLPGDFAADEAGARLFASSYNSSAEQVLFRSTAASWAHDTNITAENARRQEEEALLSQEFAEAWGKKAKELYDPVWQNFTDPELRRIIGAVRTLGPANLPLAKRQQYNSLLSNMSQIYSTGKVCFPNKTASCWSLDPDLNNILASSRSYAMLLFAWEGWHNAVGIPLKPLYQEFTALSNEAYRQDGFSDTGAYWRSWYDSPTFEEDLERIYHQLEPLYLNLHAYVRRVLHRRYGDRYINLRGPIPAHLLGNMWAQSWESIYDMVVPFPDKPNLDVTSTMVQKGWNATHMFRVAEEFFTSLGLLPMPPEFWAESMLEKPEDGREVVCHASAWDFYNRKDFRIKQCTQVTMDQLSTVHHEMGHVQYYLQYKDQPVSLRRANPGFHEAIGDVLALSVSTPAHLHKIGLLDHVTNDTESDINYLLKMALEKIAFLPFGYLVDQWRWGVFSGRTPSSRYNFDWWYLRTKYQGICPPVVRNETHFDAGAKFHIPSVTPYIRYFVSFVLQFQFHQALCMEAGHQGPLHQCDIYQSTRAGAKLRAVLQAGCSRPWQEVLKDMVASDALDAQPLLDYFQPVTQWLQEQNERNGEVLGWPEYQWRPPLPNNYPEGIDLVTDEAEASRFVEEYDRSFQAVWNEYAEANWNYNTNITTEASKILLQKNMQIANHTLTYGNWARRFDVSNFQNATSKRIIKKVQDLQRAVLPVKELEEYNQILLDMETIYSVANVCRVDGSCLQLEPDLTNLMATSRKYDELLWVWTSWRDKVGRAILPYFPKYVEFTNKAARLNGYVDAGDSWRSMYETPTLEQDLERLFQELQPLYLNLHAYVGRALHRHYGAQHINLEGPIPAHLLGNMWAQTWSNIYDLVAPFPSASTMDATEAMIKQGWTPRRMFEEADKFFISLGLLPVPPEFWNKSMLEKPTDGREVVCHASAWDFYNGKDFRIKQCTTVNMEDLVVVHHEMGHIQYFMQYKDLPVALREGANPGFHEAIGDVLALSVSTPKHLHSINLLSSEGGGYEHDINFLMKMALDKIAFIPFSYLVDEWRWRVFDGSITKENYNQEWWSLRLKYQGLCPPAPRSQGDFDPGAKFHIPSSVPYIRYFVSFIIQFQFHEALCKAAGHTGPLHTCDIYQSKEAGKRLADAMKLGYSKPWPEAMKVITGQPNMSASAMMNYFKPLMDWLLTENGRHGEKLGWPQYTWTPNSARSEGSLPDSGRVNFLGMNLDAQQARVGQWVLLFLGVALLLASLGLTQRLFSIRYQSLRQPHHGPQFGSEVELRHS
Where a name gives a salt, the structure may show the parent alone.
recordedEndpoint: IC50 (nM)

-- ask # lookup: IC50 of O=C(N[C@@H](Cc1ccc(-c2ccccc2)cc1)C(=O)O)[C@@H](CS)Cc1ccccc1 [compound 46]
-- reply 2.6

(A) O=C(N[C@@H](Cc1ccc(-c2ccccc2)cc1)C(=O)O)C(CS)Cc1cccnc1 (single isomer, unassigned) [compound 51, hydrochloride]
(B) COc1cccc(CC(CS)C(=O)N[C@@H](Cc2ccc(-c3ccccc3)cc2)C(=O)O)c1 (single isomer, unassigned) [compound 42]
-- ask API: POST /compare with A and B ; response names the item with higher IC50. Please identify the chosen entry by its label.
-- reply B

* * *

Molecular target: ACE (purified by lung rabbit, EC 3.4.15.1) (Oryctolagus cuniculus, UniProt P12822)
Construct: purchased SIGMA; host or cells: rabbit lung
Sequence (P12822 34-1310): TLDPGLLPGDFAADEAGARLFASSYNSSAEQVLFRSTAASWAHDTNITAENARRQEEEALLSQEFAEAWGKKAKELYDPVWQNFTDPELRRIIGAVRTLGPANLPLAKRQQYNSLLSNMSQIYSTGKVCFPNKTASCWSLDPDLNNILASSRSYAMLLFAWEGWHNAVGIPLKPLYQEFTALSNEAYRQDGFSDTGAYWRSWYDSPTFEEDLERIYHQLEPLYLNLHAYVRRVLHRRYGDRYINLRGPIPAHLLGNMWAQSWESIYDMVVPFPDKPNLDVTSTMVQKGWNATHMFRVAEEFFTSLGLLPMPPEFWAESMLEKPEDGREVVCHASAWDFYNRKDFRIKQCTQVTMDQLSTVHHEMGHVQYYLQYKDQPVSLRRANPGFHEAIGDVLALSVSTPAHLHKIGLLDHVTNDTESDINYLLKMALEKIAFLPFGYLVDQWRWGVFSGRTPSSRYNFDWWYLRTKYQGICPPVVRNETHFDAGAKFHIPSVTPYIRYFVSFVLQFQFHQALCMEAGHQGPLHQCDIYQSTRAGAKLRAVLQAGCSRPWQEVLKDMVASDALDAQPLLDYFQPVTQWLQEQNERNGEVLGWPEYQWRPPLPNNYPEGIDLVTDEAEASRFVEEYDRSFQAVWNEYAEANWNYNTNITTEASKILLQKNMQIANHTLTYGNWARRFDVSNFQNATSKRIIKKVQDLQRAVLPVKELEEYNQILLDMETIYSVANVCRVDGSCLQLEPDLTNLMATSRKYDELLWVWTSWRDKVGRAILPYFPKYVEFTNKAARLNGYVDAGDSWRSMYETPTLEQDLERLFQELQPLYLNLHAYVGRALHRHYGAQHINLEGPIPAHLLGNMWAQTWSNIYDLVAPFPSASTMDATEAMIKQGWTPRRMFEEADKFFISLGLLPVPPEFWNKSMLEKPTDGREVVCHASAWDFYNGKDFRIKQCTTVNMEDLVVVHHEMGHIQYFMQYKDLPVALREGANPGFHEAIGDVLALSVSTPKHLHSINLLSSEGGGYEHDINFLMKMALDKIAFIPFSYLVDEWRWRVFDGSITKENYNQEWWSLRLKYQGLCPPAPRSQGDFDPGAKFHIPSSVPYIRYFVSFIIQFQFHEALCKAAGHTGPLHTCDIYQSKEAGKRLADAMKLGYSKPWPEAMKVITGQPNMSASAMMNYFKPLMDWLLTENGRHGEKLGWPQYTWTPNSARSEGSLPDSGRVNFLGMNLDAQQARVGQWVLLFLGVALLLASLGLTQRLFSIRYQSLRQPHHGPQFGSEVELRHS
Assay: In vitro ACE-inhibitory activity (FAPGG substrate, spectrophotometric)
Format: biochemical
Conditions: 37° C.; FAPGG 0.8 mM
Where a name gives a salt, the structure may show the parent alone.
recordedEndpoint: IC50 (nM)

See these solved cases before continuing.
-- ask # lookup: IC50 of Cc1cc(CC(CS)C(=O)N[C@@H](Cc2ccc(-c3ccccc3)cc2)C(=O)O)on1 (single isomer, unassigned) [compound 54]
-- reply 11

-- ask Can you check O=C(N[C@@H](Cc1ccc(-c2ccccc2)cc1)C(=O)O)C(CS)Cc1cccnc1 (single isomer, unassigned) [compound 50, hydrochloride] next?
-- reply 13

(1) Cc1cc(CC(CS)C(=O)N[C@@H](Cc2ccc(-c3ccccc3)cc2)C(=O)O)on1 (single isomer, unassigned) [compound 53]
(2) CC(c1ccccc1)C(CS)C(=O)N[C@@H](C)C(=O)O (stereo partly shown) [RB 105, reference compound]
-- ask API: POST /compare with 1 and 2 ; response names the item with higher IC50. Please identify the chosen entry by its label.
-- reply 1

* * *

Molecular target: NEP (membranes from rat kidney cortex) (Rattus norvegicus)
Sequence (P07861 1-750): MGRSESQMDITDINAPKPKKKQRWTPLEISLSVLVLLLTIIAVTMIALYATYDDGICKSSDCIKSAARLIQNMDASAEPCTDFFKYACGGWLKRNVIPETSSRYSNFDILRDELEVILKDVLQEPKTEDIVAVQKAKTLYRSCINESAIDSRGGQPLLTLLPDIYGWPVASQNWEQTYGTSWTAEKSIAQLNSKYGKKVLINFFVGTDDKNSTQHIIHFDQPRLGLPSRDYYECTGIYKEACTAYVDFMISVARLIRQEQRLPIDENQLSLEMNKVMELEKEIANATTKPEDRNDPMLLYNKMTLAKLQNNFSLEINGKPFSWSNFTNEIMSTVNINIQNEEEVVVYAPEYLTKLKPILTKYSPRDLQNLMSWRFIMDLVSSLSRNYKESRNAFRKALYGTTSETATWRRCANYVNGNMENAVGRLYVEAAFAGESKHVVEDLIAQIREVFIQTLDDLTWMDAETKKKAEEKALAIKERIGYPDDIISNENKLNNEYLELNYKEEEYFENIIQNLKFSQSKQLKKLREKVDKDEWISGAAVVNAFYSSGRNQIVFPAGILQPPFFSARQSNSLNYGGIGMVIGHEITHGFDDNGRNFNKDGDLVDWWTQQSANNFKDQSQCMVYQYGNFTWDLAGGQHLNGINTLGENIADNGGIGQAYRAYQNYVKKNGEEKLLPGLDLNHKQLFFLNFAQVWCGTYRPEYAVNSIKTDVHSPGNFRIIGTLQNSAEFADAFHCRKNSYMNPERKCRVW
pIC50: −log10 of the molar value. Structures can show the parent of a compound that is named as a salt.
recordedEndpoint: pIC50

-- ask Hello, I am looking for reported pIC50 with NEP (membranes from rat kidney cortex) (Rattus norvegicus) for CC(C)C(CS)C(=O)N[C@@H](Cc1ccc(-c2ccccc2)cc1)C(=O)O (stereo partly drawn) . Could you help?
-- reply 8.92

(I) O=C(N[C@@H](Cc1ccc(-c2ccccc2)cc1)C(=O)O)[C@@H](CS)Cc1ccccc1
(II) O=C(N[C@@H](Cc1ccc(-c2ccccc2)cc1)C(=O)O)C(CS)Cc1cccnc1 (single isomer, unassigned) [compound 50, hydrochloride]
(III) CC(c1ccccc1)C(CS)C(=O)N[C@@H](C)C(=O)O (stereo partly drawn) [RB 105, reference compound]
(IV) O=C(N[C@@H](Cc1ccc(-c2ccccc2)cc1)C(=O)O)C(CS)Cc1ccccc1 (stereo partly drawn)
(V) O=C(N[C@@H](Cc1ccc(-c2ccccc2)cc1)C(=O)O)C(CS)Cc1cccnc1 (single isomer, unassigned) [compound 51, hydrochloride]
-- ask Arrange these compounds by their pIC50, starting with the largest number. Record the ranking as a list of labels in the requested order.
-- reply I, II, IV, V, III
(I: 8.74, II: 8.54, IV: 8.30, V: 7.89, III: 7.62)
